target: D4.4 (Homo sapiens)
readout.label: pKi
pKi (log units): -log10 of the concentration in mol/L.

Give me measured pKi, please, for this molecule: CCC(CO)NCCOc1c(C)cccc1Cl (stereo not shown)
4.60

----------
biological target: D4.4 (Homo sapiens, UniProt P21917); assay: Radioligand binding
Sequence (P21917 whole entry): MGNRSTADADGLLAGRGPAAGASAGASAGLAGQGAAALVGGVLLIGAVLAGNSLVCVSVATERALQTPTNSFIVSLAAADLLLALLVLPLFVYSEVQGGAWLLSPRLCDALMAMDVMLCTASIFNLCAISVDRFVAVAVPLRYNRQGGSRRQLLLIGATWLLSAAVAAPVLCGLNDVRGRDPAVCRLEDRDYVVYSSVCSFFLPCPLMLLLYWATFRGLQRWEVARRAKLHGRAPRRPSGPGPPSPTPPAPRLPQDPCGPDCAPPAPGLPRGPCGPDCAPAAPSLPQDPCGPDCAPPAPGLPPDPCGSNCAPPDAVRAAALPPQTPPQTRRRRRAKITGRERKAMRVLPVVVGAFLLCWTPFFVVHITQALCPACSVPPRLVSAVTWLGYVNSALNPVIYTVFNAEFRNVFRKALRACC
readout.label: pIC50
pIC50 (log units): -log10 of the concentration in mol/L.

Give me measured pIC50, please, for this compound: CCC(CO)NCCOc1c(C)cccc1Cl (stereo not shown)
4.18

----------
molecular target: D2S (Homo sapiens, UniProt P14416)
Sequence (P14416 1-414 isoform P14416-2): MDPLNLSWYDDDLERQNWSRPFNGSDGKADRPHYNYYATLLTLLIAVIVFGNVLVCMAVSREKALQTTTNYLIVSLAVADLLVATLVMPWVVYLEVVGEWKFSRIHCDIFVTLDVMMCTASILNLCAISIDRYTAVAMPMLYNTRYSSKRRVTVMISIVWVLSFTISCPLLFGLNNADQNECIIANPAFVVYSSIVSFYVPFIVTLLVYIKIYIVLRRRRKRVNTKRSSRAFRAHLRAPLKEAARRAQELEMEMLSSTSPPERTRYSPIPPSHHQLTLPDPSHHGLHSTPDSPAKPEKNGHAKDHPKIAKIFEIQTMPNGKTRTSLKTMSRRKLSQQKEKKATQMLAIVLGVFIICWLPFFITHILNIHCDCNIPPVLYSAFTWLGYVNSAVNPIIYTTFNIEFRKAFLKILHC
readout.label: Ki

Write down measured Ki (D2S (Homo sapiens, UniProt P14416)) for this compound. CCC(CO)NCCOc1c(C)cccc1Cl (stereo not shown) [KM-408]
34 µM

----------
test: Acute toxicity (LD50); conditions: mouse, in vivo; iv, mice
readout.label: LD50 at 24 h

Give me measured LD50 at 24 h, please, for this compound: CCC(CO)NCCOc1c(C)cccc1Cl (stereo not shown) [KM-408]
19.8 mg/kg

----------
test: Tissue distribution; type: in vivo, rats; conditions: male, Wistar, rat; 5 mg/kg iv, Kidneys; read-out: Kp (tissue-to-plasma AUC ratio);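 also: organ homogenates in PBS analysed by HPLC after FMOC-Cl derivatization, non-compartmental analysis, Kp as tissue over plasma AUC, half-life taken as ln2 divided by λz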
readout.label: Kp
The answer should be written as a number, with no unit following it.

Give me measured Kp, please, for this compound: CCC(CO)NCCOc1c(C)cccc1Cl (stereo not shown) [KM-408]
0.62

----------
Assay: Pharmacokinetics in plasma
Assay type: in vivo, rats
Conditions: male, Wistar, rat, plasma; rats, iv 10 mg/kg
Description: Pharmacokinetic study design. Male Wistar rats (250–300 g) bred in-house from progenitors obtained from Charles River Laboratories (Sulzfed, Germany) were used in this study. […] Pharmacokinetic data analysis. Plasma and tissue concentration versus time profiles were analyzed by the non-compartmental approach in Phoenix WinNonlin v. […] The terminal slope (λz) was estimated by linear regression and the terminal half-life (t0.5λz) was calculated as ln2/λz. […]
readout.label: C0 (ng/mL)
Quick reminder: number only, in ng/mL, skip the unit.

Give me measured C0, please, for this compound: CCC(CO)NCCOc1c(C)cccc1Cl (stereo not shown)
5330

----------
target: 5-HT2A (Homo sapiens, UniProt P28223); assay: Radioligand binding
readout.label: pKi
pKi (log units): -log10 of the concentration in mol/L.

Write down measured pKi (5-HT2A (Homo sapiens, UniProt P28223)) for this molecule. CCC(CO)NCCOc1c(C)cccc1Cl (stereo not shown)
4.52

----------
Molecular target: 5-HT2C (Homo sapiens, UniProt P28335)
Sequence (P28335 33-458): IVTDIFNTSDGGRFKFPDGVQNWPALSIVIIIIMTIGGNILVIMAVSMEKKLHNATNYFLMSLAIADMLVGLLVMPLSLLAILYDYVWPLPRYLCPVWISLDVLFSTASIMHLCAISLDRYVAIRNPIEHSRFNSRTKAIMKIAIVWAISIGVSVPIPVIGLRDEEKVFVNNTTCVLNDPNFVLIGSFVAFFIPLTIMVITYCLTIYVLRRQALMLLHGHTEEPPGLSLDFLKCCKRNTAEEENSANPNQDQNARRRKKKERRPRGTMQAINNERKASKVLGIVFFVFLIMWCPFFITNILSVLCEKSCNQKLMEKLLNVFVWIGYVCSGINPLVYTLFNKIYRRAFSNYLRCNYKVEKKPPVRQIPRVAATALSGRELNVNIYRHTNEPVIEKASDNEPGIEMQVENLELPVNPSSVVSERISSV
readout.label: pIC50
pIC50 (log units): -log10 of the concentration in mol/L.

Give me measured pIC50, please, for this molecule: CCC(CO)NCCOc1c(C)cccc1Cl (stereo not shown)
4.11
